The values you see were collected from patent US20260216242A1.

Target: ALPP (Homo sapiens, UniProt P05187)
Sequence (P05187 with tags, fused parts or gaps): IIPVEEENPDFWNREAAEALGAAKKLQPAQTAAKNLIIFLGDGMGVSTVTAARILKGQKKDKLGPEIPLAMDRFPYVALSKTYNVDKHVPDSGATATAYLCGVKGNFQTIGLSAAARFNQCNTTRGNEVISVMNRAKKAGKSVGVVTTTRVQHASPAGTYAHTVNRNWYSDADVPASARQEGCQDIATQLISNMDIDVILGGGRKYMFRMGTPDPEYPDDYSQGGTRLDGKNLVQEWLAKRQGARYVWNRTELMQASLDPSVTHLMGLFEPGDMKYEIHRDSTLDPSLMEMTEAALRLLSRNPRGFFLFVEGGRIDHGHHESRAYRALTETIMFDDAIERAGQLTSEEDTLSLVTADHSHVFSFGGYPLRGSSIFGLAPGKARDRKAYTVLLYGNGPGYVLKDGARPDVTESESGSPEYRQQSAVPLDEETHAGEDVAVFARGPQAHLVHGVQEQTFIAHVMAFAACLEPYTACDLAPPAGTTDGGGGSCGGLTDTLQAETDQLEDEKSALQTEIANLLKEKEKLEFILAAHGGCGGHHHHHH
Assay: BLI binding kinetics, human ALPP immobilised on AR2G sensors (KD / KD apparent)
Conditions: VHH domains
Procedure: Binding kinetics were determined using the Biolayer Interferometry (BLI) Octet K2 system (Sartorius). […] Ka (M^−1s^−1), Kd (s^−1) and KD (nM) values were determined using Octet Data Analysis High Throughput software (ForteBio) for Biolayer Interferometry. (§1) Binding kinetics were determined using the Biolayer Interferometry (BLI) Octet K2 or R4 system (Sartorius). […] as §1
Recorded Metric: hALPP Ka (M⁻¹ s⁻¹)

>  <Molecule>
A05: ALPP/ALPPL2 targeting VHH domain, SEQ ID NO: 16; tested C-terminally His-tagged (protein, C-terminal His tag, tested C-terminally His-tagged) VHH: QVQLVESGGGLVQAGASLTLSCAASGFTFNTRSIVWFRQAPGKEREAVSCISKVAGSTYYGDSVQGRFSSSTDNAKNTVSLQMNSLKPEDTAVYTCAASFAPNCYGWSVAANMEYWGEGTMVTVSS

>  <Units Label>
M⁻¹ s⁻¹

>  <hALPP Ka>
260000

$$$$

I = E06: ALPP/ALPPL2 targeting VHH domain, SEQ ID NO: 30 (protein) VHH: QVHLVESGGGLVQAGGSLRLSCAASRRSFSEYAMGWFRQAPGKEREFVAAIGWSGVIEYADSVKGRFTISRDNAKDTVYLQMNSLKPEDTAVYYCAAGLGIRVVSQTPAYWGQGTQVTVSS
II = F12: ALPP targeting VHH domain, SEQ ID NO: 37 (protein) VHH: QVQLVESGGGLVEAGGSLRLSCAVSGSALSDYNIGWFRQAPGKEREFVARKTWDGSSTKYDDSVKGRFTVSIDNAKNTAYLQMNSLKTEDTAVYYCAAGRYSRVRGWEYDYWGQRTQVTVSS
Task: Param pair: I , II . Output: the one whose hALPP Ka is numerically greater. Please identify the chosen entry by its label.
Result: I
